Target: Amine oxidase [flavin-containing] A (Rattus norvegicus)
Sequence (P21396 whole entry): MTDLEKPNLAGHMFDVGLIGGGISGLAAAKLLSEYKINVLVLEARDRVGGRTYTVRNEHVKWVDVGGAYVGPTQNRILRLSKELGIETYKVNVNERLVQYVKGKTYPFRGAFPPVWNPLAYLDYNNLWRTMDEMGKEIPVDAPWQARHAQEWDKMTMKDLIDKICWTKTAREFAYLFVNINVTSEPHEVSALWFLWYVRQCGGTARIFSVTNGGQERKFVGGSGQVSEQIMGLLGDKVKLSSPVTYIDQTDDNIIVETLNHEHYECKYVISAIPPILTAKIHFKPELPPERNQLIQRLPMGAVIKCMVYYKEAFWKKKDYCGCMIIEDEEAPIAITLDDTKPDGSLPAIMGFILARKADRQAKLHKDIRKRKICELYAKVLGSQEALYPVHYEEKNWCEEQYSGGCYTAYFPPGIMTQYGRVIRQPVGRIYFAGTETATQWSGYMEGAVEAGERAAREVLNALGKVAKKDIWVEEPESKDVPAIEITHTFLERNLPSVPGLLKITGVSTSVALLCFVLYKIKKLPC
METRIC_NAME: IC50 (nM)
# value in nM; strip the unit string

In [3]: df
Out[3]:
                 structure_smiles_string  value_measured
0  C#CCN(C)Cc1ccc(OC(=O)N(C)CC)c2ncccc12             9.6

Pending compound:
Ask | Value wanted: IC50 (Amine oxidase [flavin-containing] A (Rattus norvegicus)) of entry `C#CCN(C)Cc1ccc(OC(=O)N(C)C)c2ncccc12`
Reply | 7.7
